Values were extracted from paper PMC8119466.

// reported % Phosphatase Activity (compared to DMSO) PRL-1 per item
measurement_target: recombinant PRL-1 (Homo sapiens)
Construct: 6xHis (N, cleaved yes); made in house; host or cells: E. coli One Shot BL21 Star
Sequence (Q93096 1-173): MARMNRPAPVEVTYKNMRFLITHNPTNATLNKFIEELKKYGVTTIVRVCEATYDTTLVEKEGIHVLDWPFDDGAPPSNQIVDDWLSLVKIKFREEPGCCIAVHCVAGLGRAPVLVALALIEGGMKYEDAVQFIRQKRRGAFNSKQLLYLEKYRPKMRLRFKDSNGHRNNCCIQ
method_notes: In vitro phosphatase assay (DiFMUP hydrolysis), PRL-1; further: test concentration or dose not given here
Format: biochemical
condition_summary: FDA-approved drug screen; compared to DMSO
Counter-ions that a name gives are not always drawn.
metric: % Phosphatase Activity (compared to DMSO) PRL-1 (%)

[[record]]
compound = "CC(=O)[C@H]1CC[C@H]2[C@@H]3CCC4=CC(=O)CC[C@]4(C)[C@H]3CC[C@]12C"
measurement_target = "recombinant PRL-1 (Homo sapiens)"
value_unit = "%"
quantitative_readout = 90

[[record]]
compound = "O=c1oc2c(O)c(O)cc3c(=O)oc4c(O)c(O)cc1c4c23"
measurement_target = "recombinant PRL-1 (Homo sapiens)"
value_unit = "%"
quantitative_readout = 98

[[record]]
compound = "Oc1c(I)cc(Cl)c2cccnc12 [5-Chloro-8-hydroxy-7-iodoquinoline]"
measurement_target = "recombinant PRL-1 (Homo sapiens)"
value_unit = "%"
quantitative_readout = 96

[[record]]
compound = "C=CCN1CC[C@]23c4c5ccc(O)c4O[C@H]2C(=O)CC[C@@]3(O)[C@H]1C5 [Naloxone HCl]"
measurement_target = "recombinant PRL-1 (Homo sapiens)"
value_unit = "%"
quantitative_readout = 105

[[record]]
compound = "Cc1cccn2c(=O)c(-c3nnn[nH]3)cnc12"
measurement_target = "recombinant PRL-1 (Homo sapiens)"
value_unit = "%"
quantitative_readout = 330

